Target: Nitric oxide synthase, inducible (Mus musculus, UniProt P29477)
Sequence (P29477 whole entry): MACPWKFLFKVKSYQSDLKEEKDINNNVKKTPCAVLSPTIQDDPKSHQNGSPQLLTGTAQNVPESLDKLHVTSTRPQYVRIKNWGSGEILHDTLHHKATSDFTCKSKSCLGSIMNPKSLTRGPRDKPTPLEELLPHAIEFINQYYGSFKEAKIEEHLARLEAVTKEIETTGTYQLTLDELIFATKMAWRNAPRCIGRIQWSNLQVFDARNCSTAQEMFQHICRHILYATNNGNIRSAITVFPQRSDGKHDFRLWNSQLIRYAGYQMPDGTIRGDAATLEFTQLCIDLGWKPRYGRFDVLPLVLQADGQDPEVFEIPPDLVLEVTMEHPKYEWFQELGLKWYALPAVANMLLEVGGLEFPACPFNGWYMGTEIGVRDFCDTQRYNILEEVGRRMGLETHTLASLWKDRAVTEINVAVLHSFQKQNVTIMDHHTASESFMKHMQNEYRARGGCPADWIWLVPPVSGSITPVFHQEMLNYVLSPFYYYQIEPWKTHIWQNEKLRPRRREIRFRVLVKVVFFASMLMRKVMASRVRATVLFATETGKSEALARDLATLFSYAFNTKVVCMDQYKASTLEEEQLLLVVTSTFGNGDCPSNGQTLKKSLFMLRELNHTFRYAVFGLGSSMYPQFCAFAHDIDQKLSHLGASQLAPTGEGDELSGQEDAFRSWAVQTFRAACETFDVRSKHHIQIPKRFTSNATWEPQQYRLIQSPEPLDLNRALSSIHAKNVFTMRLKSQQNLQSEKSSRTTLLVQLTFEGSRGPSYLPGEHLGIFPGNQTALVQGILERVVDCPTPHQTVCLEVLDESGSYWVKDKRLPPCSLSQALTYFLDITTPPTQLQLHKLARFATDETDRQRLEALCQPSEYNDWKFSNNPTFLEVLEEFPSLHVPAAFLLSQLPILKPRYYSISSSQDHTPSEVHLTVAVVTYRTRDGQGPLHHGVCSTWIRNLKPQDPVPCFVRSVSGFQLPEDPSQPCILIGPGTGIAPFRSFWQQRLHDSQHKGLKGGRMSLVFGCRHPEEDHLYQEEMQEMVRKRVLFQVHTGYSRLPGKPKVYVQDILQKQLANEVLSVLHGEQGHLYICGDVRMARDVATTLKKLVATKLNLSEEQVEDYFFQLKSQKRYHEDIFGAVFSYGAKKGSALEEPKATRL
Test: Inhibition of LPS induced NO-dependent iNOS activity in mouse RAW 264.7 cells preincubated for 1 hrs followed by LPS stimulation and measured after 24 hrs by Griess reagent based assay
# maps each entry to its IC50
Kindly answer with a numeric value in µM, unit omitted.

Solved entries (count: 5):
>  <smiles.repr>
COc1cc(/C=C/c2nc(NCc3ccccc3)c3sccc3n2)cc(OC)c1OC

>  <number>
3.62

$$$$
>  <smiles.repr>
COc1ccc(CNc2nc(/C=C/c3cc(OC)c(OC)c(OC)c3)nc3ccsc23)cc1

>  <number>
3.26

$$$$
>  <smiles.repr>
COc1ccc(Nc2nc(/C=C/c3cc(OC)c(OC)c(OC)c3)nc3ccsc23)cc1

>  <number>
5.12

$$$$
>  <smiles.repr>
COc1cc(/C=C/c2nc(NCc3ccc(Cl)cc3)c3sccc3n2)cc(OC)c1OC

>  <number>
4.23

$$$$
>  <smiles.repr>
COc1cc(/C=C/c2nc(NCc3ccncc3)c3sccc3n2)cc(OC)c1OC

>  <number>
3.12

$$$$

Query: Which measured IC50 value corresponds to COc1cc(/C=C/c2nc(NCc3ccc(C)cc3)c3sccc3n2)cc(OC)c1OC ?
Reply: 0.96

Query: Which measured IC50 value corresponds to COc1cc(/C=C/c2nc(NC3CC3)c3sccc3n2)cc(OC)c1OC ?
Reply: 4.32

Query: Which measured IC50 value corresponds to COc1cc(/C=C/c2nc(Nc3ccc(C(F)(F)F)cc3)c3sccc3n2)cc(OC)c1OC ?
Reply: 4.2

Query: Which measured IC50 value corresponds to COc1cc(/C=C/c2nc(Nc3ccc(O)cc3)c3sccc3n2)cc(OC)c1OC ?
Reply: 1.89

###

System: RAW264.7
Assay: Antiinflammatory activity against mouse RAW264.7 cells assessed as inhibition of LPS-induced NO production at 10 uM preincubated for 1 hrs followed by LPS stimulation and measured after 24 hrs by Griess assay relative to control
Assay type: functional
Conditions: time 25 hrs
readout: inhibition at 10 µM
Include the unit right after the number.

Solved entries (count: 4):
>  <smiles.repr>
CCCc1nn(C)c2c(NC(C)C)nc(/C=C/c3cccnc3)nc12

>  <inhibition at 10 µM>
74.2%

$$$$
>  <smiles.repr>
COc1cc(/C=C/c2nc(O)nc(NCCc3ccccc3)n2)cc(OC)c1OC

>  <inhibition at 10 µM>
57%

$$$$
>  <smiles.repr>
Fc1ccc(CNc2nc(/C=C/c3ccco3)nc3ccsc23)cc1

>  <inhibition at 10 µM>
59.2%

$$$$
>  <smiles.repr>
CCCc1nn(C)c2c(NCc3ccc(F)cc3)nc(/C=C/c3nc(C)c(C)nc3C)nc12

>  <inhibition at 10 µM>
63.4%

$$$$

Query: Lab note: need inhibition at 10 µM with RAW264.7 for entry CCCc1nn(C)c2c(N3CCOCC3)nc(/C=C/c3cccnc3)nc12 , please look it up.
Reply: 69.9%

Query: Lab note: need inhibition at 10 µM with RAW264.7 for entry COc1cc(/C=C/c2nc(Nc3ccc(C(F)(F)F)cc3)c3sccc3n2)cc(OC)c1OC , please look it up.
Reply: 55.4%

###

Experiment: Metabolic stability in human hepatocytes assessed as parent compound remaining after 120 mins by LC-MS/MS analysis
Type: ADME, cell-based, Hepatocyte
Conditions: read-out: Stabilty
readout: remaining at 2 h (%)
Kindly answer with a numeric value in %, unit omitted.

Query: Which measured remaining at 2 h value corresponds to COc1cc(/C=C/c2nc(NCc3ccc(C)cc3)c3sccc3n2)cc(OC)c1OC ?
Reply: 77.5

###

Test system: RAW264.7
Assay: Antiinflammatory activity against mouse RAW264.7 cells assessed as inhibition of LPS-induced NO production at 10 uM preincubated for 1 hrs followed by LPS stimulation and measured after 24 hrs by Griess assay relative to control
Type: functional
Conditions: time 25 hrs
readout: inhibition at 10 µM (%)
Kindly answer with a numeric value in %, unit omitted.

Query: Which measured inhibition at 10 µM value corresponds to CN(C)c1nc(/C=C/c2ccccc2)nc2ccsc12 ?
Reply: 3.57

Query: Which measured inhibition at 10 µM value corresponds to COc1cc(/C=C/c2nccc(NCCc3ccc(F)cc3)n2)cc(OC)c1OC ?
Reply: 47

Query: Which measured inhibition at 10 µM value corresponds to CCCc1nn(C)c2c(NCCc3cccc(Cl)c3)nc(/C=C/c3nc(C)c(C)nc3C)nc12 ?
Reply: 68.8

Query: Which measured inhibition at 10 µM value corresponds to CCCc1nn(C)c2c(NC(C)C)nc(/C=C/c3nc(C)c(C)nc3C)nc12 ?
Reply: 54.8

Query: Which measured inhibition at 10 µM value corresponds to CCCc1nn(C)c2c(NCc3ccc(F)cc3)nc(CCc3cccnc3)nc12 ?
Reply: 18.8

Query: Which measured inhibition at 10 µM value corresponds to COc1cc(/C=C/c2nc(O)nc(NCCc3ccc(F)cc3)n2)cc(OC)c1OC ?
Reply: 36.5

###

Assay: Metabolic stability in rat hepatocytes assessed as parent compound remaining after 120 mins by LC-MS/MS analysis
Type: ADME, cell-based, Hepatocyte
Details: read-out: Stabilty
readout: remaining at 2 h

Query: Which measured remaining at 2 h value corresponds to COc1cc(/C=C/c2nc(NCc3ccc(C)cc3)c3sccc3n2)cc(OC)c1OC ?
Reply: 22.2%

###

Molecular target: Cytochrome P450 2C9 (Homo sapiens)
Sequence (P11712 whole entry): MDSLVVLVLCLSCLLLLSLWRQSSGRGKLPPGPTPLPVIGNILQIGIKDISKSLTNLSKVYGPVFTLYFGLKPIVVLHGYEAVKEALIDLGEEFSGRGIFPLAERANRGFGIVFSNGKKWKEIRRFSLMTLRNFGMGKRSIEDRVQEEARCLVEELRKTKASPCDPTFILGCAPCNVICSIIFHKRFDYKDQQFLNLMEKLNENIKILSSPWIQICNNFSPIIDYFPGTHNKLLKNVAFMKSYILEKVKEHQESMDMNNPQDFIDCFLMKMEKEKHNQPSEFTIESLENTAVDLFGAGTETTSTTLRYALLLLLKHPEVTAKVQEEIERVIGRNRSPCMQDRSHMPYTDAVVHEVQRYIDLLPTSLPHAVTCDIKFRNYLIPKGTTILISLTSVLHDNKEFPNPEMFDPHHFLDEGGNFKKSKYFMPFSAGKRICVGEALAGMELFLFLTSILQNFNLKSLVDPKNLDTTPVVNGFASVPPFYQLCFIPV
readout: pIC50
Scale: negative log10 of molar concentration, which is what pIC50 denotes.

Query: Which measured pIC50 value corresponds to COc1cc(/C=C/c2nc(NCc3ccc(C)cc3)c3sccc3n2)cc(OC)c1OC ?
Reply: 5.05

###

Test: Metabolic stability in rat hepatocytes assessed as intrinsic clearance incubated up to 120 mins measured per million cells by LC-MS/MS analysis
Type: ADME, cell-based, Hepatocyte
Conditions: read-out: CLH
# maps each entry to its log10(hepatocyte CLint)
Please be aware that the numbers have been log10-transformed from hepatocyte CLint in µL/min/1e6 cells.

Solved entries (count: 5):
>  <compound>
CCOc1ccc(NC(C)=O)cc1

>  <number>
1.33

$$$$
>  <compound>
COc1cc(/C=C/c2nc(NCc3ccc(C)cc3)c3sccc3n2)cc(OC)c1OC

>  <number>
1.10

$$$$
>  <compound>
O=C(O)Cc1ccccc1Nc1c(Cl)cccc1Cl

>  <number>
1.70

$$$$
>  <compound>
COc1ccc2c(c1)[C@]13CCCC[C@@H]1[C@H](C2)N(C)CC3

>  <number>
2.18

$$$$
>  <compound>
Cc1ncc2n1-c1ccc(Cl)cc1C(c1ccccc1F)=NC2

>  <number>
2.25

$$$$

Query: Which measured log10(hepatocyte CLint) value corresponds to COc1ccc2[nH]c([S+]([O-])Cc3ncc(C)c(OC)c3C)nc2c1 (stereo unspecified) ?
Reply: 1.71

###

Tested on: RAW264.7
Test: Antiinflammatory activity against mouse RAW264.7 cells assessed as inhibition of LPS-induced NO production at 10 uM preincubated for 1 hrs followed by LPS stimulation and measured after 24 hrs by Griess assay relative to control
Format: functional
Conditions: time 25 hrs
# binarize inhibition at 10 µM: threshold 30% inclusive, high side criterion met, low side criterion not met

>  <smiles.repr>
CCCc1nn(C)c2c(NCCc3cccc(Cl)c3)nc(/C=C/c3cccnc3)nc12

>  <answer.label>
criterion met

$$$$
>  <smiles.repr>
COc1cc(/C=C/c2nc(NCCc3ccc(F)cc3)c3sccc3n2)cc(OC)c1OC

>  <answer.label>
criterion not met

$$$$
>  <smiles.repr>
Clc1ccc(CNc2nc(/C=C/c3ccco3)nc3ccsc23)cc1

>  <answer.label>
criterion not met

$$$$
>  <smiles.repr>
COc1cc(/C=C/c2nc(NCc3ccccc3)c3sccc3n2)cc(OC)c1OC

>  <answer.label>
criterion met

$$$$
>  <smiles.repr>
CC(C)c1ccc(Nc2nc(/C=C/c3ccco3)nc3ccsc23)cc1

>  <answer.label>
criterion met

$$$$

Query: Check this compound for inhibition at 10 µM at or above 30%: CNc1nc(/C=C/c2ccccc2)nc2ccsc12
Reply: criterion not met

Query: Check this compound for inhibition at 10 µM at or above 30%: CC(C)CNc1nc(/C=C/c2ccccc2)nc2ccsc12
Reply: criterion not met

Query: Check this compound for inhibition at 10 µM at or above 30%: CCCc1nn(C)c2c(N3CCS(=O)(=O)CC3)nc(CCc3cccnc3)nc12
Reply: criterion not met

Query: Check this compound for inhibition at 10 µM at or above 30%: CCCc1nn(C)c2c(NCc3ccc(F)cc3)nc(/C=C/c3ccc[n+]([O-])c3)nc12
Reply: criterion met

Query: Check this compound for inhibition at 10 µM at or above 30%: C(=C\c1ccco1)/c1nc(NC2CC2)c2sccc2n1
Reply: criterion met

###

System: RAW264.7
Test: Antiinflammatory activity against mouse RAW264.7 cells assessed as inhibition of LPS-induced NO production at 10 uM preincubated for 1 hrs followed by LPS stimulation and measured after 24 hrs by Griess assay relative to control
Assay type: functional
Conditions: time 25 hrs
# binarize inhibition at 10 µM: threshold 40% inclusive, high side true, low side false

Solved entries (count: 5):
>  <smiles.repr>
COc1cc(/C=C/c2nc(NC(C)C)c3sccc3n2)cc(OC)c1OC

>  <answer.label>
true

$$$$
>  <smiles.repr>
CN(c1ccccc1)c1nc(/C=C/c2ccccc2)nc2ccsc12

>  <answer.label>
false

$$$$
>  <smiles.repr>
CCCc1nn(C)c2c(NCCc3ccccc3)nc(CCc3cccnc3)nc12

>  <answer.label>
false

$$$$
>  <smiles.repr>
CC(C)Nc1nc(/C=C/c2ccccc2)nc2ccsc12

>  <answer.label>
false

$$$$
>  <smiles.repr>
COc1cc(/C=C/c2nc(Cl)cc(NCCc3ccccc3)n2)cc(OC)c1OC

>  <answer.label>
false

$$$$

Query: Check this compound for inhibition at 10 µM at or above 40%: CCCc1nn(C)c2c(NC3CC3)nc(/C=C/c3cccnc3)nc12
Reply: true

Query: Check this compound for inhibition at 10 µM at or above 40%: COc1cc(/C=C/c2nc(NCc3ccco3)c3sccc3n2)cc(OC)c1OC
Reply: true

All figures here come from ChEMBL document CHEMBL4813945.
